All figures here come from the supplement of paper PMC10567573.

test description: protein stability index of a GFP-peptide fusion (GPS, HEK-293T) (PSI 1-6); higher = more stable;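 note: 24-mer peptide tiles fused after GFP, lentivirally expressed, FACS-sorted into six equal bins by GFP/DsRed ratio, decoded by Illumina sequencing, PSI is the read-weighted mean bin number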
measurement context: treatment: MLN4924 1 uM, 8 h; c terminus: a fixed tail appended
The label depends only on protein stability index: Fulfilled if it is at least 4, Not fulfilled if it is smaller.

hey, is protein stability index for this one >= 4? NADGSYLCQCHEGFALNPDKKTCT [MATN2]
Fulfilled

hey, is protein stability index for this one >= 4? TFILKNPPENSDSGTGKKEKEKKN [EIF5]
Fulfilled

hey, is protein stability index for this one >= 4? VVEATHMCMVMRGVQKMNSKTVTS [GCH1]
Not fulfilled

hey, is protein stability index for this one >= 4? VSSVTQVEVDENAYRCGSGMQMAE [NET1]
Fulfilled

hey, is protein stability index for this one >= 4? ALVGDEVELPCRISPGKNATGMEV [MOG]
Fulfilled

hey, is protein stability index for this one >= 4? NISELKRTFLETSTDTAVTNEWEK [EPB41L3]
Fulfilled
